Target: estrogen-related receptor alpha (ERRα) (Homo sapiens, UniProt P11474)
Sequence (P11474 1-423): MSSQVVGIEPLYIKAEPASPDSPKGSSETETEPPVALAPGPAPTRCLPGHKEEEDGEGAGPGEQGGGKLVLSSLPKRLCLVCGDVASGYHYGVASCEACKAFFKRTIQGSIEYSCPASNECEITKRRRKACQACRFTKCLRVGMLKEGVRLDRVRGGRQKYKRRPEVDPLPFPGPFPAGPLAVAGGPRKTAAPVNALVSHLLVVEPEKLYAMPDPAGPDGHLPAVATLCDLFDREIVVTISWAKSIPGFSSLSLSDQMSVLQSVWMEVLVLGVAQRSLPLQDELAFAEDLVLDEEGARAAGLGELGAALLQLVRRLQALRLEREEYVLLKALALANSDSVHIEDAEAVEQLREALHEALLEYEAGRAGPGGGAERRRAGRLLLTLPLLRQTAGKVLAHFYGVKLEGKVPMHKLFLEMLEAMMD
Assay: ERR reporter (luciferase) antagonist qHTS assay, ERR-HEK293
Details: ERR-HEK293 Follow-Up EC50
assay_readout: EC50 (nM)
The figure you give is taken to be in nM; do not add the unit.

In: Give its EC50 value. Item: CC[C@@]1(O)C(=O)OCc2c1cc1n(c2=O)Cc2c-1nc1ccccc1c2/C=N/OC(C)(C)C
Out: 44.2

* * *

Biological target: ERRα with PGC-1α (PGC/ERR pathway) (Homo sapiens)
Entries and their PGC/ERR-HEK293 Primary Efficacy values follow.
Could you write the number and then its unit?

# count of solved cases: 3
molecule	experimental_target	PGC/ERR-HEK293 Primary Efficacy
COC(=O)N(OC)c1ccccc1COc1ccn(-c2ccc(Cl)cc2)n1 [Pyraclostrobin]	ERRα with PGC-1α (PGC/ERR pathway) (Homo sapiens)	−58.2 ± 4.17%
CC(C)(C)c1ccc(CSc2cnn(C(C)(C)C)c(=O)c2Cl)cc1 [Pyridaben]	ERRα with PGC-1α (PGC/ERR pathway) (Homo sapiens)	−57.6 ± 8.49%
CO/N=C(/C(=O)OC)c1ccccc1COc1ccccc1C [Kresoxim-methyl]	ERRα with PGC-1α (PGC/ERR pathway) (Homo sapiens)	−56.7 ± 8.51%

In: Give its PGC/ERR-HEK293 Primary Efficacy value. Item: CO/C=C(/C(=O)OC)c1ccccc1COc1cccc(C(F)(F)F)n1 [Picoxystrobin]
Out: −44.2 ± 4.37%

* * *

Entries and their EC50 values follow.
Target: ERRα with PGC-1α (PGC/ERR pathway) (Homo sapiens)
Experiment: PGC/ERR reporter (luciferase) qHTS assay, PGC/ERR-HEK293
Conditions: PGC/ERR-HEK293 Primary EC50, primary qHTS, 18 h; mean ± SD, triplicate
The figure you give is taken to be in nM; do not add the unit.

compound	EC50 / nM
COc1cc([C@@H]2c3cc4c(cc3[C@@H](O[C@@H]3O[C@@H]5CO[C@@H](C)O[C@H]5[C@H](O)[C@H]3O)[C@H]3COC(=O)[C@H]23)OCO4)cc(OC)c1O [Etoposide]	2100
COC(=O)N(OC)c1ccccc1COc1ccn(-c2ccc(Cl)cc2)n1	838
CC(C)C[C@H](NC(=O)[C@H](CCc1ccccc1)NC(=O)CN1CCOCC1)C(=O)N[C@@H](Cc1ccccc1)C(=O)N[C@@H](CC(C)C)C(=O)[C@@]1(C)CO1	61.5
C=C(C)[C@H]1Cc2c(ccc3c2O[C@@H]2COc4cc(OC)c(OC)cc4[C@@H]2C3=O)O1	7.42
CC(C)(C)c1ccc(CSc2cnn(C(C)(C)C)c(=O)c2Cl)cc1	7.81
C[C@@H]1CC[C@H]2[C@@H](C)C(=O)O[C@@H]3O[C@@]4(C)CC[C@@H]1[C@]32OO4	1780

We next turn to a different compound, shown below.
In: Give its EC50 value. Item: CO/N=C(/C(=O)OC)c1ccccc1COc1ccccc1C
Out: 7660

Where do the numbers come from? From paper PMC6429183.
